- Test system: SC27B
- Procedure Summary: qHTS profiling for inhibitors of Plasmodium falciparum proliferation (AID 504749); note: nearly all actives have a fitted effect of over 60% in size
- Recorded Conditions: P. falciparum in erythrocytes, SYBR Green DNA, 72 h; series mostly up to 28.7 µM
Results filed as inconclusive are left out. Activity calls are given as the source filed them. Calls come from the whole dose curve; as a rule, active = well fitted inhibition curve with a large enough effect; inconclusive = small, poorly fitted or top-dose-only effect; inactive = flat fitted curve, though single readings scatter.
// one of active, inactive, no free text

Here are 8 molecules together with their reported answers.
O=C(O)c1ccc(N[C@@H]2OC[C@@H](O)[C@@H](O)[C@@H]2O)cc1 = inactive
CCCSS/C(CCO)=C(/C)N(C=O)Cc1cnc(C)nc1N = inactive
CC(CN1CC(=O)NC(=O)C1)N1CC(=O)NC(=O)C1 (configuration not stated) = inactive
C/C1=C2/[N-]C(C(CC(N)=O)[C@@]2(C)CCC(=O)NCC(C)OP(=O)([O-])O[C@H]2[C@@H](O)[C@@H](n3cnc4cc(C)c(C)cc43)O[C@@H]2CO)[C@]2(C)N=C(/C(C)=C3N=C(/C=C4N=C1C(CCC(N)=O)C\4(C)C)[C@@H](CCC(N)=O)[C@]\3(C)CC(N)=O)[C@@H](CCC(N)=O)[C@]2(C)CC(N)=O.CC(=O)O.[Co] (some centres not stated) = inactive
CC(C)CCCC(C)C1CC(=O)C2=C3CCC4CC(O)CCC4(C)C3CCC21C (configuration not stated) = inactive
COC(=O)C1C2CC3c4[nH]c5cc(OC)ccc5c4CCN3CC2CC(OC)C1OC (configuration not stated) = inactive
O=C(O)C(O)c1ccccc1 (configuration not stated) = inactive
CNC(=O)C(N)CSC(C)C1=C(C)c2cc3[n-]c(cc4nc(cc5[n-]c(cc1n2)c(C)c5CCC(=O)O)C(CCC(=O)O)=C4C)c(C)c3C(C)SCC(N)C(=O)NC.[Fe+2] (configuration not stated) = inactive

Exercise: # lookup: test call for `Cc1cnc(C(=O)O)cn1`
Solution: inactive

Exercise: # lookup: test call for CCN1CCN(C(=O)NC(C(=O)NC2C(=O)N3C(C(=O)O)=C(CSc4nnnn4C)CSC23)c2ccc(O)cc2)C(=O)C1=O (configuration not stated)
Solution: inactive

Exercise: # lookup: test call for CC(=O)N1CC(O)CC1C(=O)O (configuration not stated)
Solution: inactive

Exercise: # lookup: test call for `NC(=O)OC[C@@H]1[C@H](NC(=O)/C(=N/OCC(=O)O)c2csc(N)n2)C(=O)N1S(=O)(=O)O`
Solution: inactive

Exercise: # lookup: test call for C=C(CC[C@@H](C)[C@H]1CCC2[C@]1(C)CC[C@]13C[C@@]14CCC(OC(=O)/C=C/c1ccc(O)c(OC)c1)C(C)(C)[C@@H]4CC[C@@]23C)C(C)C (some centres not stated)
Solution: inactive

###

- System: 7G8
- Procedure Summary: qHTS profiling for inhibitors of Plasmodium falciparum proliferation (AID 504749); note: nearly all actives have a fitted effect of over 60% in size
- Recorded Conditions: P. falciparum in erythrocytes, SYBR Green DNA, 72 h; series mostly up to 28.7 µM
- Description: NIH National Institute of Allergy and Infectious Diseases [NIAID] NIH Chemical Genomics Center [NCGC] […] Because mature erythrocytes lack DNA, only Plasmodium-derived DNA is detected. NCGC Assay Protocol Summary: The SYBR Green viability assay was adapted from a method described previously (Plouffe et al., 2008). […] The following morning, fluorescence intensity at 485(14) nm excitation and 535(25) nm emission wavelengths was measured on an EnVision (Perkin Elmer) plate reader. […]
Inconclusive results are not listed. Calls of active or inactive are those of the source. The call rests on the fitted dose curve; in most records, active means well fitted inhibition curve with a large enough effect; inconclusive means small, poorly fitted or top-dose-only effect; inactive means flat fitted curve, though single readings scatter.
// one of yes = active, no = inactive, no free text

Here are 2 compounds together with their reported answers.
CC1=C(C/C=C(\C)CCCC(C)CCCC(C)CCCC(C)C)C(=O)c2ccccc2C1=O (stereo not drawn) = yes
CC(=O)NC1[C@H](O)C[C@@](O)(C(=O)O)O[C@H]1[C@H](O)[C@H](O)CO (stereo partly drawn) = no

Exercise: # lookup: test call for CC(CN1CC(=O)NC(=O)C1)N1CC(=O)NC(=O)C1 (stereo not drawn)
Solution: no

Exercise: # lookup: test call for `O=C1C(I)=CC(=C(c2cc(I)c(O)c(I)c2)c2ccccc2C(=O)O)C=C1I`
Solution: no
